Experiment: Pharmacokinetics of LOS and EXP3174 in non-hypertensive Wistar rats (LC-MS)
Assay type: in vivo
Details: rat, serum, po; Wistar rats without L-NAME; LOS 10 mg/kg/d ig alone (BLANK + LOS group)
Description: All groups were treated for 2 weeks and the blood collection time and methods of serum management were the same as those mentioned above. The LOS and EXP3174 in rat serum were quantitatively determined by a validated LC-MS method. […] The collected data were analyzed through Xcalibur 4.1 software. […] The pharmacokinetic parameters corresponding to each rat were calculated using the “non-compartmental model” of the “PK solution 2.0TM (Summit Research Services, United States)” pharmacokinetic software. […]
Parameter Cmax: see the listing below.

{"CHEM_SMILES": "CCCCc1nc(Cl)c(CO)n1Cc1ccc(-c2ccccc2-c2nn[nH]n2)cc1", "OUTPUT_UNIT": "ng/mL", "Cmax": 108}
{"CHEM_SMILES": "CCCCc1nc(Cl)c(C(=O)O)n1Cc1ccc(-c2ccccc2-c2nn[nH]n2)cc1", "OUTPUT_UNIT": "ng/mL", "Cmax": 115}

###

Assay: Pharmacokinetics of LOS and EXP3174 in the hypertension rat model (LC-MS)
Format: in vivo, Wistar rats
Conditions: Wistar, rat, plasma, po, 10 mg/kg/day, hypertensive rats (L-NAME); LOS 10 mg/kg/d ig + SMI 4 ml/kg/d tail vein (SMI-M+LOS group)
Parameter half-life: see the listing below.

{"CHEM_SMILES": "CCCCc1nc(Cl)c(C(=O)O)n1Cc1ccc(-c2ccccc2-c2nn[nH]n2)cc1", "OUTPUT_UNIT": "min", "half-life": 395}
{"CHEM_SMILES": "CCCCc1nc(Cl)c(CO)n1Cc1ccc(-c2ccccc2-c2nn[nH]n2)cc1", "OUTPUT_UNIT": "min", "half-life": 505}

###

Parameter half-life: see the listing below.
Experiment: Pharmacokinetics of LOS and EXP3174 in the hypertension rat model (LC-MS)
Assay type: in vivo, Wistar rats
Settings: Wistar, rat, plasma, po, 10 mg/kg/day, hypertensive rats (L-NAME); LOS 10 mg/kg/d ig + SMI 6 ml/kg/d tail vein (SMI-H+LOS group)

{"COMPOUND": "CCCCc1nc(Cl)c(C(=O)O)n1Cc1ccc(-c2ccccc2-c2nn[nH]n2)cc1 [EXP3174, losartan carboxylic acid]", "half-life [h]": 7.31}
{"COMPOUND": "CCCCc1nc(Cl)c(CO)n1Cc1ccc(-c2ccccc2-c2nn[nH]n2)cc1 [LOS, losartan potassium]", "half-life [h]": 9.92}

###

Parameter Cmax: see the listing below.
Assay: Pharmacokinetics of LOS and EXP3174 in the hypertension rat model (LC-MS)
Assay type: in vivo, Wistar rats
Settings: Wistar, rat, plasma, po, 10 mg/kg/day, hypertensive rats (L-NAME); LOS 10 mg/kg/d ig + SMI 2 ml/kg/d tail vein (SMI-L+LOS group)

{"COMPOUND": "CCCCc1nc(Cl)c(C(=O)O)n1Cc1ccc(-c2ccccc2-c2nn[nH]n2)cc1 [EXP3174, losartan carboxylic acid]", "Cmax / ng/mL": 133}
{"COMPOUND": "CCCCc1nc(Cl)c(CO)n1Cc1ccc(-c2ccccc2-c2nn[nH]n2)cc1 [LOS, losartan potassium]", "Cmax / ng/mL": 125}

###

Experiment: Pharmacokinetics of LOS and EXP3174 in the hypertension rat model (LC-MS)
Type: in vivo, Wistar rats
Conditions: Wistar, rat, plasma, po, 10 mg/kg/day, hypertensive rats (L-NAME); LOS 10 mg/kg/d ig alone (LOS group)

{"CHEM_SMILES": "CCCCc1nc(Cl)c(C(=O)O)n1Cc1ccc(-c2ccccc2-c2nn[nH]n2)cc1", "OUTPUT_UNIT": "ng·h/mL", "AUC(0-t)": 1160}
{"CHEM_SMILES": "CCCCc1nc(Cl)c(CO)n1Cc1ccc(-c2ccccc2-c2nn[nH]n2)cc1", "OUTPUT_UNIT": "ng·h/mL", "AUC(0-t)": 787}

###

Test: Pharmacokinetics of LOS and EXP3174 in the hypertension rat model (LC-MS)
Assay type: in vivo, Wistar rats
Conditions: Wistar, rat, plasma, po, 10 mg/kg/day, hypertensive rats (L-NAME); LOS 10 mg/kg/d ig + SMI 2 ml/kg/d tail vein (SMI-L+LOS group)
Description: All samples were centrifuged at 3,000 rpm for 10 min, and the upper plasma was collected for Liquid Chromatography Mass Spectrometry (LC-MS) analysis. The LOS and EXP3174 in rat serum were quantitatively determined by a validated LC-MS method. […] The collected data were analyzed through Xcalibur 4.1 software. […]
Parameter AUC(0-t): see the listing below.
READOUT: AUC(0-t)

{"COMPOUND": "CCCCc1nc(Cl)c(CO)n1Cc1ccc(-c2ccccc2-c2nn[nH]n2)cc1 [LOS, losartan potassium]", "READOUT": "AUC(0-t)", "MEASUREMENT": "1110 ng·h/mL"}
{"COMPOUND": "CCCCc1nc(Cl)c(C(=O)O)n1Cc1ccc(-c2ccccc2-c2nn[nH]n2)cc1 [EXP3174, losartan carboxylic acid]", "READOUT": "AUC(0-t)", "MEASUREMENT": "1180 ng·h/mL"}

###

Parameter AUC(0-t): see the listing below.
Experiment: Pharmacokinetics of LOS and EXP3174 in non-hypertensive Wistar rats (LC-MS)
Format: in vivo
Settings: rat, serum, po; Wistar rats without L-NAME; LOS 10 mg/kg/d ig alone (BLANK + LOS group)
READOUT: AUC(0-t) (ng·h/mL)

{"COMPOUND": "CCCCc1nc(Cl)c(C(=O)O)n1Cc1ccc(-c2ccccc2-c2nn[nH]n2)cc1 [EXP3174, losartan carboxylic acid]", "READOUT": "AUC(0-t)", "MEASUREMENT": 1020}
{"COMPOUND": "CCCCc1nc(Cl)c(CO)n1Cc1ccc(-c2ccccc2-c2nn[nH]n2)cc1 [LOS, losartan potassium]", "READOUT": "AUC(0-t)", "MEASUREMENT": 911}

###

Assay: Pharmacokinetics of LOS and EXP3174 in the hypertension rat model (LC-MS)
Assay type: in vivo, Wistar rats
Settings: Wistar, rat, plasma, po, 10 mg/kg/day, hypertensive rats (L-NAME); LOS 10 mg/kg/d ig + SMI 2 ml/kg/d tail vein (SMI-L+LOS group)
Parameter AUC(0-inf): see the listing below.
READOUT: AUC(0-inf) (ng·h/mL)

{"CHEM_SMILES": "CCCCc1nc(Cl)c(C(=O)O)n1Cc1ccc(-c2ccccc2-c2nn[nH]n2)cc1", "READOUT": "AUC(0-inf)", "MEASUREMENT": 1280}
{"CHEM_SMILES": "CCCCc1nc(Cl)c(CO)n1Cc1ccc(-c2ccccc2-c2nn[nH]n2)cc1", "READOUT": "AUC(0-inf)", "MEASUREMENT": 1210}

###

Parameter half-life: see the listing below.
Assay: Pharmacokinetics of LOS and EXP3174 in non-hypertensive Wistar rats (LC-MS)
Type: in vivo
Settings: rat, serum, po; Wistar rats without L-NAME; LOS 10 mg/kg/d ig alone (BLANK + LOS group)
READOUT: half-life (h)

{"CHEM_SMILES": "CCCCc1nc(Cl)c(C(=O)O)n1Cc1ccc(-c2ccccc2-c2nn[nH]n2)cc1", "MEASUREMENT": 6.5}
{"CHEM_SMILES": "CCCCc1nc(Cl)c(CO)n1Cc1ccc(-c2ccccc2-c2nn[nH]n2)cc1", "MEASUREMENT": 6.03}

###

Assay: Pharmacokinetics of LOS and EXP3174 in the hypertension rat model (LC-MS)
Type: in vivo, Wistar rats
Conditions: Wistar, rat, plasma, po, 10 mg/kg/day, hypertensive rats (L-NAME); LOS 10 mg/kg/d ig + SMI 6 ml/kg/d tail vein (SMI-H+LOS group)
Parameter MRT: see the listing below.
READOUT: MRT (h)

{"COMPOUND": "CCCCc1nc(Cl)c(CO)n1Cc1ccc(-c2ccccc2-c2nn[nH]n2)cc1 [LOS, losartan potassium]", "MEASUREMENT": 12.1}
{"COMPOUND": "CCCCc1nc(Cl)c(C(=O)O)n1Cc1ccc(-c2ccccc2-c2nn[nH]n2)cc1 [EXP3174, losartan carboxylic acid]", "MEASUREMENT": 13.3}

###

Parameter MRT: see the listing below.
Experiment: Pharmacokinetics of LOS and EXP3174 in the hypertension rat model (LC-MS)
Format: in vivo, Wistar rats
Conditions: Wistar, rat, plasma, po, 10 mg/kg/day, hypertensive rats (L-NAME); LOS 10 mg/kg/d ig + SMI 2 ml/kg/d tail vein (SMI-L+LOS group)

{"CHEM_SMILES": "CCCCc1nc(Cl)c(C(=O)O)n1Cc1ccc(-c2ccccc2-c2nn[nH]n2)cc1", "MRT / h": 9.5}
{"CHEM_SMILES": "CCCCc1nc(Cl)c(CO)n1Cc1ccc(-c2ccccc2-c2nn[nH]n2)cc1", "MRT / h": 8.54}
